Task for the reader: assign each of the following molecules its reported Papp.
- Assay overview: Permeability across human Caco2 cells
- Assay type: ADME, cell-based
- Test context: Caco-2, read-out: permeability
Reply with just the number (in ×10⁻⁶ cm/s).

Ask | Please give the measured Papp for this molecule: `CC(C)[C@]1(C)CC(=O)N(Cc2cccc(N3C[C@@H](c4ccccc4)CC3=O)c2)C(=N)N1`
Reply | 4.2

Ask | Check `CC(C)[C@]1(C)CC(=O)N(Cc2cc(F)cc(N3C[C@@H](c4ccccc4)CC3=O)c2)C(=N)N1` too.
Reply | 6.7

Ask | Check `CC(C)[C@]1(C)CC(=O)N(Cc2cccc(C(=O)NCc3ccccc3)c2)C(=N)N1` too.
Reply | 0.09
